System: K4 kissing-loop RNA reporter;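 further: bound reporter read as fluorescence of individual clusters on recovered sequencing chips by microscopy, with normalized cluster intensities fitted with a binding model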
Assay: apparent KD of K4 kissing-loop reporter; higher = weaker reporter binding
Details: Eterna round: R107; input ligand: FMN 200 uM
reportedProperty: apparent KD of K4 kissing-loop reporter (nM)
Give bare numbers, in nM.

>>> valuereported("UGAUUGGCGAAAGUAGUGAUGUUACGAAUAUAGGAUAUUAGAGGAAUAAGAAGGAUAAGGGAGAAAUAGGUAAAUUGUUGGUUGG [whbob_SS_FMNA__2th170]")
132
>>> valuereported("GCGCGCGGCGGAGGAUAUAGCAGGUGAUCCAAGAAAGUGAGUGAUGUUUAUGGAGAUGAUGAUAUGUUAGAAGGCCGCCGCGCGC [abcdefghijklmnopqrstu]")
803
>>> valuereported("AAAAUAAACUAGUGAUGUUGGUGUCCAGAUACCAGCGACGAAAGUCGCCCUUGGCAGCUGUGGACGUACAAAAUAAGUACGUCCU [MatMod 21 - Jieux - Same State - Theophylline A]")
319

Please state, for each entry, its recorded apparent KD of K4 kissing-loop reporter.
1. AAGUUUUAUAAACUCAUGGUUUCGACAGAUACCAGCUUCGAGAGGAGCCCUUGGCAGCUGCAUGAGUGAUGUUCAUGUACGAAGA [KL-XTheoA8]
2. CAUACGCAUGGAGGAUAUGAGAUUACUCAUGUCAUUUAAUAUUCUCAGUGAUGUUGAGAUUUUGGCUCAGAAGGCCAUGUGUAUG [Ex FMN B 18]
3. AGUGUGCAAAAGCACACUCAGAACAAGGACAAGGAUAUCUACUAAUAGAGAAGGUGUCCUUUCCUUAGUGAUGUUAAGGAACUGA [Omei KL FMN A SS D v5]

Found:
1. 377
2. 436
3. 278

Where do the numbers come from? From the supplement of paper PMC9170038.
